test: Particle size analysis using the Aerosizer/Aerodisperser system; type: physicochemical; details: particle size distribution, 25% under
PARAMETER_MEASURED: SIZE, 25% UNDER (micron)
Please state the figure in micron; there is no need to write the unit.

Look over these answered cases.
compound="CC(C)Cc1ccc(C(C)C(=O)O)cc1 (stereo not shown) [Example 1c, ibuprofen]" parameter_measured="SIZE, 25% UNDER" observed_measurement=5.999
compound="CC(C)Cc1ccc(C(C)C(=O)O)cc1 (stereo not shown) [Example 1a, ibuprofen]" parameter_measured="SIZE, 25% UNDER" observed_measurement=16.74
compound="CC(C)Cc1ccc(C(C)C(=O)O)cc1 (stereo not shown) [Example 2, ibuprofen]" parameter_measured="SIZE, 25% UNDER" observed_measurement=10.62

Field: next compound
Ask: Data request, read-out SIZE, 25% UNDER, for CC(C)Cc1ccc(C(C)C(=O)O)cc1 (stereo not shown) [Example 1b, ibuprofen]
Reply: 10.75
